STUDY_SYSTEM: T1, integrin αVβ5 (UniProt P06756 31-992; P18084 24-719)
T1 construct: Coated on the ELISA plate
T1 sequence (P06756 31-992, chain 1 of 2): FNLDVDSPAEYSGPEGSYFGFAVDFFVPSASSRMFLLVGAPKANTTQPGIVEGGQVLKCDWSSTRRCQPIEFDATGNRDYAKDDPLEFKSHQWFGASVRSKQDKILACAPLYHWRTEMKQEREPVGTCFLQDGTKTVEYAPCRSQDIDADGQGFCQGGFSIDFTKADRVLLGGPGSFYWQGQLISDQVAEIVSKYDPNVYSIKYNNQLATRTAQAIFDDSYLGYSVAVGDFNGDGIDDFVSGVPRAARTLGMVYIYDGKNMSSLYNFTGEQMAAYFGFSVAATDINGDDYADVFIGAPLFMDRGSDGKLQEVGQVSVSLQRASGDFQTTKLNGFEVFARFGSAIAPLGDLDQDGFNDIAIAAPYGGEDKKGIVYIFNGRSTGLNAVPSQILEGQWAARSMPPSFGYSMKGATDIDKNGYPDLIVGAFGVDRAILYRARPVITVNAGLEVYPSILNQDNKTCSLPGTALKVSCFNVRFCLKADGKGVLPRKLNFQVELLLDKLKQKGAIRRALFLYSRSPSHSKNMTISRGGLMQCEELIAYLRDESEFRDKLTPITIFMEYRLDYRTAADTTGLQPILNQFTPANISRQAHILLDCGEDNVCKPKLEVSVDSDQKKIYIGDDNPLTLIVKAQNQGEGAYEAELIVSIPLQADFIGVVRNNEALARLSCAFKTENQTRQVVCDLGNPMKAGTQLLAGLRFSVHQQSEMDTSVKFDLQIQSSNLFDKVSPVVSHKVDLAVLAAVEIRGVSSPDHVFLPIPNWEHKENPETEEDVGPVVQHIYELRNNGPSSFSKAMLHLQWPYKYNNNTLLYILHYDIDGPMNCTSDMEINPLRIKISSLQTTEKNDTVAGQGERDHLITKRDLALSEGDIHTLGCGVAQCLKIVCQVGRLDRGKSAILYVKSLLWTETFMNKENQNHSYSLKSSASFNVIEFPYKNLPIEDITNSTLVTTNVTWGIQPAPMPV
T1 sequence (P18084 24-719, chain 2 of 2): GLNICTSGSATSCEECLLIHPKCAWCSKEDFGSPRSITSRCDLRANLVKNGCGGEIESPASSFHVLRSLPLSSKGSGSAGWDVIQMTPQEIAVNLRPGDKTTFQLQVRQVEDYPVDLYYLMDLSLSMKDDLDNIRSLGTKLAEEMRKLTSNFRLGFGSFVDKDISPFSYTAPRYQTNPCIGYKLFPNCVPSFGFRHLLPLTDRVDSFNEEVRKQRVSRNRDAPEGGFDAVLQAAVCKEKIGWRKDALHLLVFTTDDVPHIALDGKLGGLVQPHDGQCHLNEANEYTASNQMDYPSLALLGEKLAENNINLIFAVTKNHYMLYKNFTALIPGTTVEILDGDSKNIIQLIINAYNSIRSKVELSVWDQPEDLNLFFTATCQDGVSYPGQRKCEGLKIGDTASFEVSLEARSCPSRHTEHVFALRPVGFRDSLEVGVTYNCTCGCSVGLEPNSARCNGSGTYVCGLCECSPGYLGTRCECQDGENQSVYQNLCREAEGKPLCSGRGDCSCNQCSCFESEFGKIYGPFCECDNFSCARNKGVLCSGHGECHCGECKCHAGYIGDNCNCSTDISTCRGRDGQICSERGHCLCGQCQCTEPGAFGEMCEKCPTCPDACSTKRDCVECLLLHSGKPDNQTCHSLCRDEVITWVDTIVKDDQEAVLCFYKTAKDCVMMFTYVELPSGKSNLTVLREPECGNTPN
MEASUREMENT_DESCRIPTION: ELISA, coated integrin, anti-MICA-HRP
Exercise: for every item that follows, state its recorded αvβ5 signal.
Give bare numbers, in OD.

Please supply αvβ5 signal for each of the following items, keeping them in order.
1. soluble MICA generated from pKK46 (loop 1 insert extended 5.1sp) (designed binder, From pKK34 (His6, Glu125); secreted by 293T cells; also called 1-5.1sp) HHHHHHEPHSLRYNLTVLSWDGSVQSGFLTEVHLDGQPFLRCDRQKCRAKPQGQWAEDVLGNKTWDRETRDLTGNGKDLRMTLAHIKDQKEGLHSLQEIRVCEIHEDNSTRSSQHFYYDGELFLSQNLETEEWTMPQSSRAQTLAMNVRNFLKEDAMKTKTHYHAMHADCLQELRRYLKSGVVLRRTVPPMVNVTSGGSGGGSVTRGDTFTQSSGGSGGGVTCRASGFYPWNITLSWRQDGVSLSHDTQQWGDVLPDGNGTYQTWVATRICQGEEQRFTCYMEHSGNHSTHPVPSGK
2. soluble MICA generated from pKK45 (loop 1 insert extended 3.3sp) (designed binder, From pKK34 (His6, Glu125); secreted by 293T cells; also called 1-3.3sp) HHHHHHEPHSLRYNLTVLSWDGSVQSGFLTEVHLDGQPFLRCDRQKCRAKPQGQWAEDVLGNKTWDRETRDLTGNGKDLRMTLAHIKDQKEGLHSLQEIRVCEIHEDNSTRSSQHFYYDGELFLSQNLETEEWTMPQSSRAQTLAMNVRNFLKEDAMKTKTHYHAMHADCLQELRRYLKSGVVLRRTVPPMVNVTSGGSGGGSRVPRGDSDLTSGGSGGGVTCRASGFYPWNITLSWRQDGVSLSHDTQQWGDVLPDGNGTYQTWVATRICQGEEQRFTCYMEHSGNHSTHPVPSGK

Given back:
1: 1.06; 2: 0.41

Hey, can you go through the list below and give me αvβ5 signal for every item?
1. soluble MICA generated from pKK44 (loop 1 insert extended 3.2sp) (designed binder, From pKK34 (His6, Glu125); secreted by 293T cells; also called 1-3.2sp) HHHHHHEPHSLRYNLTVLSWDGSVQSGFLTEVHLDGQPFLRCDRQKCRAKPQGQWAEDVLGNKTWDRETRDLTGNGKDLRMTLAHIKDQKEGLHSLQEIRVCEIHEDNSTRSSQHFYYDGELFLSQNLETEEWTMPQSSRAQTLAMNVRNFLKEDAMKTKTHYHAMHADCLQELRRYLKSGVVLRRTVPPMVNVTSGGSGGGSTSRGDHPRTQSGGSGGGVTCRASGFYPWNITLSWRQDGVSLSHDTQQWGDVLPDGNGTYQTWVATRICQGEEQRFTCYMEHSGNHSTHPVPSGK
2. soluble MICA generated from pKK40 (loop 1 insert 5.1) (designed binder, From pKK34 (His6, Glu125); secreted by 293T cells; also called 1-5.1) HHHHHHEPHSLRYNLTVLSWDGSVQSGFLTEVHLDGQPFLRCDRQKCRAKPQGQWAEDVLGNKTWDRETRDLTGNGKDLRMTLAHIKDQKEGLHSLQEIRVCEIHEDNSTRSSQHFYYDGELFLSQNLETEEWTMPQSSRAQTLAMNVRNFLKEDAMKTKTHYHAMHADCLQELRRYLKSGVVLRRTVPPMVNVTVTRGDTFTQSVTCRASGFYPWNITLSWRQDGVSLSHDTQQWGDVLPDGNGTYQTWVATRICQGEEQRFTCYMEHSGNHSTHPVPSGK
3. soluble MICA generated from pKK39 (loop 1 insert 3.4) (designed binder, From pKK34 (His6, Glu125); secreted by 293T cells; also called 1-3.4) HHHHHHEPHSLRYNLTVLSWDGSVQSGFLTEVHLDGQPFLRCDRQKCRAKPQGQWAEDVLGNKTWDRETRDLTGNGKDLRMTLAHIKDQKEGLHSLQEIRVCEIHEDNSTRSSQHFYYDGELFLSQNLETEEWTMPQSSRAQTLAMNVRNFLKEDAMKTKTHYHAMHADCLQELRRYLKSGVVLRRTVPPMVNVTRSARGDSDHRVTCRASGFYPWNITLSWRQDGVSLSHDTQQWGDVLPDGNGTYQTWVATRICQGEEQRFTCYMEHSGNHSTHPVPSGK
4. soluble MICA generated from pKK36 (loop 1 insert 3.1) (designed binder, From pKK34 (His6, Glu125); secreted by 293T cells; also called 1-3.1) HHHHHHEPHSLRYNLTVLSWDGSVQSGFLTEVHLDGQPFLRCDRQKCRAKPQGQWAEDVLGNKTWDRETRDLTGNGKDLRMTLAHIKDQKEGLHSLQEIRVCEIHEDNSTRSSQHFYYDGELFLSQNLETEEWTMPQSSRAQTLAMNVRNFLKEDAMKTKTHYHAMHADCLQELRRYLKSGVVLRRTVPPMVNVTSRGDHPRTQVTCRASGFYPWNITLSWRQDGVSLSHDTQQWGDVLPDGNGTYQTWVATRICQGEEQRFTCYMEHSGNHSTHPVPSGK
5. soluble MICA generated from pKK37 (loop 1 insert 3.2) (designed binder, From pKK34 (His6, Glu125); secreted by 293T cells; also called 1-3.2) HHHHHHEPHSLRYNLTVLSWDGSVQSGFLTEVHLDGQPFLRCDRQKCRAKPQGQWAEDVLGNKTWDRETRDLTGNGKDLRMTLAHIKDQKEGLHSLQEIRVCEIHEDNSTRSSQHFYYDGELFLSQNLETEEWTMPQSSRAQTLAMNVRNFLKEDAMKTKTHYHAMHADCLQELRRYLKSGVVLRRTVPPMVNVTRTSRGDHPRTQVTCRASGFYPWNITLSWRQDGVSLSHDTQQWGDVLPDGNGTYQTWVATRICQGEEQRFTCYMEHSGNHSTHPVPSGK
6. soluble MICA generated from pKK55 (tight loop 1 insert T-5.1) (designed binder, From pSW324 (from pKK34: His6, Glu125); secreted by 293T cells; also called 1-T-5.1) HHHHHHEPHSLRYNLTVLSWDGSVQSGFLTEVHLDGQPFLRCDRQKCRAKPQGQWAEDVLGNKTWDRETRDLTGNGKDLRMTLAHIKDQKEGLHSLQEIRVCEIHEDNSTRSSQHFYYDGELFLSQNLETEEWTMPQSSRAQTLAMNVRNFLKEDAMKTKTHYHAMHADCLQELRRYLKSGVVLRRTVPPMVNVTRGDTFTQSCRASGFYPWNITLSWRQDGVSLSHDTQQWGDVLPDGNGTYQTWVATRICQGEEQRFTCYMEHSGNHSTHPVPSGK
7. soluble MICA generated from pKK51 (loop 3 insert extended 5.3sp) (designed binder, From pSW276 (no N-terminal His tag, Lys125); secreted by 293T cells; also called 3-5.3sp) EPHSLRYNLTVLSWDGSVQSGFLTEVHLDGQPFLRCDRQKCRAKPQGQWAEDVLGNKTWDRETRDLTGNGKDLRMTLAHIKDQKEGLHSLQEIRVCEIHEDNSTRSSQHFYYDGELFLSQNLETKEWTMPQSSRAQTLAMNVRNFLKEDAMKTKTHYHAMHADCLQELRRYLKSGVVLRRTVPPMVNVTRSEASEGNITVTCRASGFYPWNITLSWRQDGVSLSHDTQQWGDVLPDGNGTYQTWVATRISGGSGGGSHLARGDDLTYSGGSGGGCYMEHSGNHSTHPVPSGK

Given back:
[0.46, 0.675, 0.528, 0.526, 0.779, 0.588, 1.05]

From: patent US20150165065A1
